system: BRD4-compound-CRBN/DDB1 ternary complex (Homo sapiens, UniProt O60885+Q96SW2)
method.description: BRD4-compound-CRBN/DDB1 ternary complex formation, AlphaLISA homogenous assay
condition.set: 100 nM His-CRBN/DDB1, 20 nM BRD4, N = 3, read-out: TF50 (compound concentration which mediate the half of maximal response observed for Ternary Complex)
# EC50 values compiled below
metric.name: EC50

- Cc1sc2c(c1C)C(c1ccc(Cl)cc1)=N[C@@H](CC(=O)NCCCCCCCCNC(=O)CCc1nc3c(C(=O)NC4CCC(=O)NC4=O)cccc3[nH]1)c1nnc(C)n1-2 (stereo partly drawn): 70.5 nM
- Cc1sc2c(c1C)C(c1ccc(Cl)cc1)=N[C@@H](CC(=O)NCCCCCCCCNC(=O)Cn1c(C)nc3c(C(=O)NC4CCC(=O)NC4=O)cccc31)c1nnc(C)n1-2 (stereo partly drawn): 38.8 nM
- Cc1nc2c(C(=O)NC3CCC(=O)NC3=O)cc(OCC(=O)NCCCCCCCCNC(=O)C[C@@H]3N=C(c4ccc(Cl)cc4)c4c(sc(C)c4C)-n4c(C)nnc43)cc2[nH]1 (stereo partly drawn): 42.1 nM

----------
system: CRBN-DDB1 protein complex (Homo sapiens)
method.description: Fluorescence polarization (FP) assay, displacement of Cy5-labelled thalidomide
condition.set: 25 nM CRBN-DDB1, 5 nM Cy5-labelled thalidomide, read-out: CRBN binding Ki
metric.name: Ki

- Nc1ccc2cn[nH]c2c1C(=O)NC1CCC(=O)NC1=O (centres unmarked): 1 to 10 µM
- O=C1CCC(NC(=O)c2cccc3cnsc23)C(=O)N1 (centres unmarked): 1 to 10 µM
- Cc1nc2cccc(C(=O)NC3CCC(=O)NC3=O)c2s1 (centres unmarked): 1 to 10 µM
- Cc1cc2cccc(C(=O)NC3CCC(=O)NC3=O)c2s1 (centres unmarked): 1 to 10 µM
- O=C1CCC(NC(=O)c2cccc3nc[nH]c23)C(=O)N1 (centres unmarked): 1 to 10 µM

----------
system: CRBN-DDB1 protein complex (Homo sapiens)
method.description: Fluorescence polarization (FP) assay, displacement of Cy5-labelled thalidomide
condition.set: 25 nM CRBN-DDB1, 5 nM Cy5-labelled thalidomide, read-out: CRBN binding Ki
pKi: −log10 of the molar value.
metric.name: pKi

* O=C1CCC(NC(=O)c2csc3[nH]cnc23)C(=O)N1 (centres unmarked) [Compound 60] | 5.00 to 6.00
* Cc1sc2c(c1C)C(c1ccc(Cl)cc1)=N[C@@H](CC(=O)NCCCCCCCCNC(=O)CCc1nc3c(C(=O)NC4CCC(=O)NC4=O)cccc3[nH]1)c1nnc(C)n1-2 (some centres unmarked) [Compound 64] | 5.00 to 6.00
* O=C1CCC(NC(=O)c2c(F)ccc3[nH]cnc23)C(=O)N1 (centres unmarked) [Compound 7] | 5.00 to 6.00
* Cc1nc2c(C(=O)NC3CCC(=O)NC3=O)cccc2[nH]1 (centres unmarked) [Compound 15] | > 6.00
* O=C1CCC(NC(=O)c2ccnc3scnc23)C(=O)N1 (centres unmarked) [Compound 54] | 5.00 to 6.00
* Cc1nc2c(C(=O)NC3CCC(=O)NC3=O)c(OCC(=O)NCCCCCCCCNC(=O)C[C@@H]3N=C(c4ccc(Cl)cc4)c4c(sc(C)c4C)-n4c(C)nnc43)ccc2[nH]1 (some centres unmarked) [Compound 67] | 5.00 to 6.00
* O=C1CCC(NC(=O)c2cc(Br)cc3cn[nH]c23)C(=O)N1 (centres unmarked) [Compound 47] | 5.00 to 6.00
* N#Cc1nc2c(C(=O)NC3CCC(=O)NC3=O)cccc2[nH]1 (centres unmarked) [Compound 22] | > 6.00

Source of measurements: patent US20240343706A1
